Values were extracted from patent US9464092B2.

- study-target: CDK2/CyclinA (Homo sapiens (Human))
- assay-name: CDK2/CyclinA kinase assay (Nanosyn, Caliper microfluidic)
- Assay type: biochemical
- setup-conditions: Table 2
readout-kind: Fold Selectivity (CDK2/CycA/CDK4)

>>> print(df.to_string())
                                   molecule                         study_target                       readout_kind   val
0  O=C1NCC2(CCCCC2)n2c1cc1cnc(Nc3ccc(N4CCN(C5CCC5)CC4)cn3)nc12  CDK2/CyclinA (Homo sapiens (Human))  Fold Selectivity (CDK2/CycA/CDK4)   127
1  CC1CCN(C2CCN(c3ccc(Nc4ncc5cc6n(c5n4)C4(CCCCC4)CNC6=O)nc3)CC2)C1 (stereo not shown)  CDK2/CyclinA (Homo sapiens (Human))  Fold Selectivity (CDK2/CycA/CDK4)   703
2  CCN(CC)C1CCN(c2ccc(Nc3ncc4cc5n(c4n3)C3(CCCC3)CNC5=O)nc2)CC1  CDK2/CyclinA (Homo sapiens (Human))  Fold Selectivity (CDK2/CycA/CDK4)  1425
3  C[C@H](O)CN1CCN(c2ccc(Nc3ncc4cc5n(c4n3)C3(CCCCC3)CNC5=O)nc2)CC1  CDK2/CyclinA (Homo sapiens (Human))  Fold Selectivity (CDK2/CycA/CDK4)   754
4  O=C1NCC2(CCCCC2)n2c1cc1cnc(Nc3ccc(N4CCC(N5CCC(C(F)(F)F)CC5)CC4)cn3)nc12  CDK2/CyclinA (Homo sapiens (Human))  Fold Selectivity (CDK2/CycA/CDK4)  2058

a. C[C@H](O)CN1CCN(c2ccc(Nc3ncc4cc5n(c4n3)C3(CCCCC3)CNC5=O)nc2)C[C@@H]1C
b. C[C@@H](O)CN1CCN(c2ccc(Nc3ncc4cc5n(c4n3)C3(CCCCC3)CNC5=O)nc2)CC1
c. O=C1NCC2(CCCCC2)n2c1cc1cnc(Nc3ccc(C(=O)N4CCNCC4)cn3)nc12
d. CC(C)N1CCN(Cc2ccc(Nc3ncc4cc5n(c4n3)C3(CCCCC3)CNC5=O)nc2)CC1
Data request: Put the molecules in ascending order of Fold Selectivity (CDK2/CycA/CDK4). Answer with the labels in sequence, matching the requested order.
Data returned: c, b, d, a

I. CCN(CC)C1CCN(C2CCN(c3ccc(Nc4ncc5cc6n(c5n4)C4(CCCCC4)CNC6=O)nc3)CC2)C1 (stereo not shown)
II. C[C@H]1CN(c2ccc(Nc3ncc4cc5n(c4n3)C3(CCCCC3)CNC5=O)nc2)CCN1CC1CC1
Data request: Out of I and II , name the one with the higher Fold Selectivity (CDK2/CycA/CDK4). Lab log: write the label of the selected item as the result.
Data returned: II

a. CC1(C)CN(c2ccc(Nc3ncc4cc5n(c4n3)C3(CCCCC3)CNC5=O)nc2)CCN1
b. C[C@H]1CN(c2ccc(Nc3ncc4cc5n(c4n3)C3(CCCCC3)CNC5=O)nc2)CCN1
Data request: Which shows the larger Fold Selectivity (CDK2/CycA/CDK4) value: a or b ? Refer to your chosen item by its label in the answer.
Data returned: a
(a: 568, b: 396)

---

- study-target: CDK2/CyclinA (Homo sapiens (Human), UniProt P24941)
- assay-name: CDK2/CyclinA kinase assay (Nanosyn, Caliper microfluidic)
- Assay type: biochemical
- setup-conditions: Table 2; read-out: CDK2/CycA IC50
readout-kind: IC50 (nM)

>>> print(df.to_string())
                                   compound  readout_kind   val
0  C[C@@H]1CN(c2ccc(Nc3ncc4cc5n(c4n3)C3(CCCCC3)CNC5=O)nc2)C[C@H](C)N1          IC50  1010
1  CCN1[C@H](C)CN(c2ccc(Nc3ncc4cc5n(c4n3)C3(CCCCC3)CNC5=O)nc2)C[C@@H]1C          IC50  1400

A. O=C1NCC2(CCCCC2)n2c1cc1cnc(Nc3ccc(N4CCC(N5CCC(C(F)(F)F)CC5)CC4)cn3)nc12
B. CC1CN(c2ccc(Nc3ncc4cc5n(c4n3)C3(CCCCC3)CNC5=O)nc2)C[C@@H](C)N1CC1CC1 (stereo partly drawn)
C. O=C1NCC2(CCCC2)n2c1cc1cnc(Nc3ccc(C(=O)N4CCN(CC5CC5)CC4)cn3)nc12
D. C[C@@H]1CN(c2ccc(Nc3ncc4cc5n(c4n3)C3(CCCCC3)CNC5=O)nc2)C[C@H](C)N1C
Data request: Hey, quick one: sort these by IC50, largest value first please. Sort and list the labels as requested.
Data returned: D, A, B, C

1. CN(C)C1CCN(c2ccc(Nc3ncc4cc5n(c4n3)C3(CCCCC3)CNC5=O)nn2)CC1
2. O=C1NCC2(CCCCC2)n2c1cc1cnc(Nc3ccc(N4CCN(CC5CC5)CC4)cn3)nc12
Data request: Hi team, can someone confirm which has the larger IC50: 1 or 2 ? Thanks. Your choice should be expressed through its label.
Data returned: 1

---

- study-target: CDK2/CyclinE (Homo sapiens (Human), UniProt P24941)
- assay-name: CDK2/CyclinE kinase assay (Nanosyn, Caliper microfluidic)
- Type: biochemical
- setup-conditions: Table 2; read-out: CDK2/CycE IC50
pIC50: −log10 of the molar value.
readout-kind: pIC50

Some compounds with recorded pIC50:
                                   compound   val
0  C[C@@H]1CN(c2ccc(Nc3ncc4cc5n(c4n3)C3(CCCCC3)CNC5=O)nc2)CCN1C[C@@H](C)O  5.29
1  O=C1NCC2(CCCCC2)n2c1cc1cnc(Nc3ccc(N4CCN(CC5CC5)CC4)cn3)nc12  5.89
2  CN(C)C1CCN(c2ccc(Nc3ncc4cc5n(c4n3)C3(CCCC3)CNC5=O)nc2)CC1  5.16
3  CCN(CC)C1CCN(c2ccc(Nc3ncc4cc5n(c4n3)C3(CCCC3)CNC5=O)nc2)C1 (stereo not shown)  5.40
4  CC(C)N1CCN(c2ccc(Nc3ncc4cc5n(c4n3)C3(CCCCC3)CNC5=O)nc2)CC1C (stereo not shown)  5.44
5  C[C@H]1CN(c2ccc(Nc3ncc4cc5n(c4n3)C3(CCCCC3)CNC5=O)nc2)CCN1C  5.72

I. CC1CN(c2ccc(Nc3ncc4cc5n(c4n3)C3(CCCCC3)CNC5=O)nc2)CCN1CC(C)(C)O (stereo not shown)
II. CC(C)C1CN(c2ccc(Nc3ncc4cc5n(c4n3)C3(CCCCC3)CNC5=O)nc2)CCN1 (stereo not shown)
III. CCN(CC)C1CCN(c2ccc(Nc3ncc4cc5n(c4n3)C3(CCCCC3)CNC5=O)nc2)CC1
IV. O=C1NCC2(CCCCC2)n2c1cc1cnc(Nc3ccc(C(=O)N4CCN(C5CCC5)CC4)cn3)nc12
V. CC(C)(C)CCN1CCN(c2ccc(Nc3ncc4cc5n(c4n3)C3(CCCC3)CNC5=O)nc2)CC1(C)C
Data request: // ascending sort on recorded pIC50 Give the order by naming the labels one after another as requested.
Data returned: I, V, III, II, IV

---

- study-target: CDK4/CyclinD1 (Homo sapiens (Human), UniProt P11802)
- Sequence (P11802 whole entry, species assumed): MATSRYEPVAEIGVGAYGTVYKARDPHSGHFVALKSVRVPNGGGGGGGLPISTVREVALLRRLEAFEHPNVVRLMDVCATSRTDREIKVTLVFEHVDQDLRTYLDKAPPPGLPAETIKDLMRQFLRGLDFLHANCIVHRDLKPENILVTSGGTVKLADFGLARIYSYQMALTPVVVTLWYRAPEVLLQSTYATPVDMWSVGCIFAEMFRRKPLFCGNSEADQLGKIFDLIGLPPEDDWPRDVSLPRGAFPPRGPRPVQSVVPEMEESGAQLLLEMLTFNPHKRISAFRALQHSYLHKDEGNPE
- Sequence (P24385 whole entry partner, species assumed): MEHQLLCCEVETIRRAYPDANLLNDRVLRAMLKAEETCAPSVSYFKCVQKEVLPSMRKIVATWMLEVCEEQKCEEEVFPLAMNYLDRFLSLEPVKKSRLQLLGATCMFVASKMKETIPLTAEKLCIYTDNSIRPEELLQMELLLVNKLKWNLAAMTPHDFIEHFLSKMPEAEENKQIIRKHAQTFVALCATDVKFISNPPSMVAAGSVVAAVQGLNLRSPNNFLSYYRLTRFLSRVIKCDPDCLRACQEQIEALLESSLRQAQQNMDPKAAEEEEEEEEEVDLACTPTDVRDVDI
- assay-name: CDK4/CyclinD1 kinase assay (Nanosyn, Caliper microfluidic)
- Type: biochemical
- setup-conditions: Table 2; read-out: CDK4/CycD1 IC50
- Procedure: Selected compounds disclosed herein were tested in CDK4/cyclinD1, CDK6/CycD3 CDK2/CycA and CDK2/cyclinE kinase assays by Nanosyn (Santa Clara, Calif.) to determine their inhibitory effect on these CDKs. The assays were performed using microfluidic kinase detection technology (Caliper Assay Platform). The compounds were tested in 12-point dose-response format in singlicate at Km for ATP. […]
pIC50: −log10 of the molar value.
readout-kind: pIC50

Some entries whose results are on file:
                                   compound   val
0  CC(C)N1CCN(C(=O)c2ccc(Nc3ncc4cc5n(c4n3)C3(CCCCC3)CNC5=O)nc2)CC1  8.70
1  CC(C)(C)CCN1CCN(c2ccc(Nc3ncc4cc5n(c4n3)C3(CCCC3)CNC5=O)nc2)CC1(C)C  8.70
2  CCN(CC)C1CCN(c2ccc(Nc3ncc4cc5n(c4n3)C3(CCCCC3)CNC5=O)nc2)C1 (stereo not drawn)  8.39

I. CCC(C)CN1[C@H](C)CN(c2ccc(Nc3ncc4cc5n(c4n3)C3(CCCC3)CNC5=O)nc2)C[C@@H]1C (stereo partly drawn)
II. CC(C)N1CCN(c2ccc(Nc3ncc4cc5n(c4n3)C3(CCCCC3)CNC5=O)nc2)C[C@H]1C
III. CC1(C)CN(c2ccc(Nc3ncc4cc5n(c4n3)C3(CCCCC3)CNC5=O)nc2)CCN1C1CC1
IV. C[C@@H]1CN(c2ccc(Nc3ncc4cc5n(c4n3)C3(CCCC3)CNC5=O)nc2)C[C@H](C)N1
V. CC1(C)CN(c2ccc(Nc3ncc4cc5n(c4n3)C3(CCCCC3)CNC5=O)nc2)CCN1
Data request: Returns the items ordered by pIC50, from maximum to minimum. // rank by listing labels in the order requested
Data returned: III, V, I, II, IV
(III: 9.10, V: 8.70, I: 8.49, II: 8.24, IV: 8.02)
